# EXPERIMENTAL_SYSTEM: human A2B AR (Homo sapiens, UniProt P29275)
# Construct: expressed in transfected cells; host or cells: CHO cells
# Sequence (P29275 whole entry): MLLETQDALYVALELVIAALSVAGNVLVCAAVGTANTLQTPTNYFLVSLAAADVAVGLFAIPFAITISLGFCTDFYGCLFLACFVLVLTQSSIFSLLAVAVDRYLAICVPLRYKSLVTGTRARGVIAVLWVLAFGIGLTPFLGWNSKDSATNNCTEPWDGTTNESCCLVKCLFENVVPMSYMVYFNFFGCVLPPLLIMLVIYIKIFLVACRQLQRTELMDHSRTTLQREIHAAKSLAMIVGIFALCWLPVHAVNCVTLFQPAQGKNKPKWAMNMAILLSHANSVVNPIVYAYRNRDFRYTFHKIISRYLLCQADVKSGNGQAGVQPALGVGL
# EXPERIMENT_NOTES: Radioligand binding assay at human A2B AR vs. [^3H]PSB-603
# ASSAY_SETUP: CHO cell membranes, n = 2 (n = 3 where marked a), read-out: Ki ± SEM, A2B vs. [^3H]PSB-603
# Protocol: Membrane preparations and radioligand binding assays at rat A1 (rat brain cortex) and rat A2A ARs (rat brain striatum) were performed as previously described (Ozola et al., [2003]; Alnouri et al., [2015]). […] The synthesized tetrahydropyrazino[2,1-f ]purinediones 13–20 were evaluated in radioligand binding assays for their affinity to A1 ARs of rat brain cortical membrane and to A2A ARs of rat brain striatal membrane preparations. […]
pKi: −log10 of the molar value.
READOUT_LABEL: pKi

C#CCn1c(=O)c2c(nc3n2CCN(CCc2ccc(OC)c(OC)c2)C3)n(CC)c1=O [Compound 20l]	< 6.00
CCn1c(=O)c2c(nc3n2CCN(Cc2cccc(C(F)(F)F)c2)C3)n(C)c1=O [Compound 14e]	< 7.00
Cn1c(=O)[nH]c(=O)c2c1nc1n2CCN(CCc2ccc(Cl)cc2Cl)C1 [Compound 13f]	< 6.00
CCn1c(=O)c2c(nc3n2CCN(Cc2cc(C(F)(F)F)ccc2F)C3)n(CC)c1=O [Compound 15j]	< 6.00
